# ASSAY_COMMENT: Apparent solubility study in pH buffers (50 mM), 25° C., 24 hours, HPLC
# Type: physicochemical
# TEST_CONDITIONS: pH 1 buffer (50 mM), 25 °C, pH 1, aqueous buffer, thermodynamic from solid, pH 1 buffer, 24 hours
MEASUREMENT_KIND: solubility at 24 h
Kindly report the value followed by its unit.

What value of solubility at 24 h has been recorded for this entry: CCOC(=O)C1=C(CN2CCN3C(=O)N(CC(C)(C)C(=O)O)C[C@@H]3C2)NC(c2nccs2)=N[C@H]1c1cccc(F)c1C [Form A]
940 µg/mL
